Target: full-length human Notch1 expressed on the cell surface (human, UniProt P46531 19-2555)
Sequence (P46531 19-2555): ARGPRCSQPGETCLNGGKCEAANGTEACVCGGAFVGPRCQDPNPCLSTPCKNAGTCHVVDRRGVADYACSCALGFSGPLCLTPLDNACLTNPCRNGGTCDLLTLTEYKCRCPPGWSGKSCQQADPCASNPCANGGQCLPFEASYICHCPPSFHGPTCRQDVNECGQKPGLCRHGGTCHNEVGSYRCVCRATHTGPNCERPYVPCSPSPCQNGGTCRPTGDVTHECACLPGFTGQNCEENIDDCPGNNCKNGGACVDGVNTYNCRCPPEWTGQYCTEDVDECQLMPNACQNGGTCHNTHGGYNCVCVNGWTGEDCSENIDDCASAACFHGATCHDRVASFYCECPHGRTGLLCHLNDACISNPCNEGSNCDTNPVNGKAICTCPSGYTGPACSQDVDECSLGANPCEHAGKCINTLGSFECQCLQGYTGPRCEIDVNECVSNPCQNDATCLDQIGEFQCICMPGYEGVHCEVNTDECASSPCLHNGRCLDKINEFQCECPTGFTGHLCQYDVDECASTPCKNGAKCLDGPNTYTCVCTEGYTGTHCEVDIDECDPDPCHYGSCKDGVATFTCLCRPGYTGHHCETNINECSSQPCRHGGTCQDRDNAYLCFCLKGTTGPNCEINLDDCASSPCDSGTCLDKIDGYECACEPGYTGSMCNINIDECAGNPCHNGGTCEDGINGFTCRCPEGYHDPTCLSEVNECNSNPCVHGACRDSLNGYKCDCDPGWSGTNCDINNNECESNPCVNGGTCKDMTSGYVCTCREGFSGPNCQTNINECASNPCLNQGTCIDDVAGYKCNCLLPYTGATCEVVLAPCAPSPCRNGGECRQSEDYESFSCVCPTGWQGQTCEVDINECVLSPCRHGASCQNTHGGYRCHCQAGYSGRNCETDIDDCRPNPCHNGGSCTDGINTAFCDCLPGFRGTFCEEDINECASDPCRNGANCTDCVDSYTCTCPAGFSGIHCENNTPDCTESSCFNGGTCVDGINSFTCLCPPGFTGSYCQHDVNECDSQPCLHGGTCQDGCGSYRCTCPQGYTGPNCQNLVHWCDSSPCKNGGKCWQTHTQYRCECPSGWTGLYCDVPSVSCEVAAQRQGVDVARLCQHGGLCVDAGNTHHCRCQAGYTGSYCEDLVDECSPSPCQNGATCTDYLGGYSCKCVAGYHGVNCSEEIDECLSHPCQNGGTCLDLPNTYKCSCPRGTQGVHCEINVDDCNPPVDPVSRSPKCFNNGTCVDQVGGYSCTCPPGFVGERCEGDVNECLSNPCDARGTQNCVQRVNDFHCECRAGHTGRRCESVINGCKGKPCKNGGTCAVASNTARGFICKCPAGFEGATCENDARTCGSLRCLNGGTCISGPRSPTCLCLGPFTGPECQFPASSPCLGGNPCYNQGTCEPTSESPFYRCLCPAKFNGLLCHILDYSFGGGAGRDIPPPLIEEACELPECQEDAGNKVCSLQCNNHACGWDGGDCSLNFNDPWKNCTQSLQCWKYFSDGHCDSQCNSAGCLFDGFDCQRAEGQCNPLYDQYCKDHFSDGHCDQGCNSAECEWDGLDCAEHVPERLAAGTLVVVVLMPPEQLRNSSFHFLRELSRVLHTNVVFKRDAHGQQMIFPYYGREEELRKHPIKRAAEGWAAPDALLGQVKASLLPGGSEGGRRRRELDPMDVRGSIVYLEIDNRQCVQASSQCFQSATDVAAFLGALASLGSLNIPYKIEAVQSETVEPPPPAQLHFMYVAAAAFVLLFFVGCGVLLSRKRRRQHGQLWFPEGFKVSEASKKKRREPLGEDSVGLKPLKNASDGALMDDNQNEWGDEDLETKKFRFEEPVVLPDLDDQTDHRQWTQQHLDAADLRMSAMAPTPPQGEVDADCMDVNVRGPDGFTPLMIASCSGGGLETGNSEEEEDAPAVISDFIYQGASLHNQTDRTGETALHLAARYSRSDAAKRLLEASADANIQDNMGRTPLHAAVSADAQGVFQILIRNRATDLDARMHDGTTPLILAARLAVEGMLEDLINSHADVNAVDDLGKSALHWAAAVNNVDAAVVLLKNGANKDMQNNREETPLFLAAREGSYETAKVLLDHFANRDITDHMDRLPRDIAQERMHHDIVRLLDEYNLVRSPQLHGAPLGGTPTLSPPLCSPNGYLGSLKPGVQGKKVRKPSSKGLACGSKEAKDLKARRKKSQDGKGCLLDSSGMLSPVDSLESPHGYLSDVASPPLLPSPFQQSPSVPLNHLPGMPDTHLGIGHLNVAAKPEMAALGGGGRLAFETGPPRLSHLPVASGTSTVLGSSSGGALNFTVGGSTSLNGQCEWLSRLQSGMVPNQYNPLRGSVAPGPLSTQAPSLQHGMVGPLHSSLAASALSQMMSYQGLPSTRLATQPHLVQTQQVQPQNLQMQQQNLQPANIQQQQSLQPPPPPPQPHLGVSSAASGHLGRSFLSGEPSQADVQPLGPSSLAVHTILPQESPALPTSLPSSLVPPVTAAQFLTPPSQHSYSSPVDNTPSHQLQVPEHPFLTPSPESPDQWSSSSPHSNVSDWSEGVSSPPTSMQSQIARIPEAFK
Test: cell-based or functional assay
measurement-kind: Maximal Inhibition (%), Notch1 signaling inhibition co-culture reporter assay
Field: numeric (%). Do not append units.

Example results:
binder: rat 351(R58Y/V60A)-mIgG1 (antibody, V domains shown) VH: EVQLVESGGGLVQPGRSLKVSCLASGFTFSHYGMNWIRQAPGKGLDWVASISRSGSYIYYADTVKGRFTVSRDIAKNTLYLQMTSLRSEDTALYYCAREGQFGDYFEYWGQGVMVTVSS VL: DIMLTQSPATLSVTPGERISLSCRASQKISTNLHWYQQKPNESPRILIKYASQTISGIPSRFSGSGSGTDFTLHINTVEPEDFSVYYCQQTNSWPLTFGSGTKLEIK
value-reported: 95.3

binder: rat 351(R58Y)-mIgG1 (antibody, V domains shown) VH: EVQLVESGGGLVQPGRSLKVSCLASGFTFSHYGMNWIRQAPGKGLDWVASISRSGSYIYYVDTVKGRFTVSRDIAKNTLYLQMTSLRSEDTALYYCAREGQFGDYFEYWGQGVMVTVSS VL: DIMLTQSPATLSVTPGERISLSCRASQKISTNLHWYQQKPNESPRILIKYASQTISGIPSRFSGSGSGTDFTLHINTVEPEDFSVYYCQQTNSWPLTFGSGTKLEIK
value-reported: 95.3

[Q] // Input: rat 351(R58Y/V60R)-mIgG1 (antibody, V domains shown) VH: EVQLVESGGGLVQPGRSLKVSCLASGFTFSHYGMNWIRQAPGKGLDWVASISRSGSYIYYRDTVKGRFTVSRDIAKNTLYLQMTSLRSEDTALYYCAREGQFGDYFEYWGQGVMVTVSS VL: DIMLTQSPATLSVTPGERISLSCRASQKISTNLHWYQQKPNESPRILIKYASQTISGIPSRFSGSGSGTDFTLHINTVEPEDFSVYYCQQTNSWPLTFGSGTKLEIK . Output its Maximal Inhibition (%), Notch1 signaling inhibition co-culture reporter assay only.
[A] 95.3

[Q] Give Maximal Inhibition (%), Notch1 signaling inhibition co-culture reporter assay for the following binder: parental rat 351 (antibody, V domains shown, Rat monoclonal IgG from a hybridoma) VH: EVQLVESGGGLVQPGRSLKVSCLASGFTFSHYGMNWIRQAPGKGLDWVASISRSGSYIRYVDTVKGRFTVSRDIAKNTLYLQMTSLRSEDTALYYCAREGQFGDYFEYWGQGVMVTVSS VL: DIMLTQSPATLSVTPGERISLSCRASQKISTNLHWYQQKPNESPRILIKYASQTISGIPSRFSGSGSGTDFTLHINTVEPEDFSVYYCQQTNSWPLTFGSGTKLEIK
[A] 87.5

From: patent US20160002331A1
